Each entry below lists one item and its recorded Kd value.
Biological target: T1, PUF4 RNA-binding domain (Saccharomyces cerevisiae, UniProt P25339 537-888)
T1 sequence: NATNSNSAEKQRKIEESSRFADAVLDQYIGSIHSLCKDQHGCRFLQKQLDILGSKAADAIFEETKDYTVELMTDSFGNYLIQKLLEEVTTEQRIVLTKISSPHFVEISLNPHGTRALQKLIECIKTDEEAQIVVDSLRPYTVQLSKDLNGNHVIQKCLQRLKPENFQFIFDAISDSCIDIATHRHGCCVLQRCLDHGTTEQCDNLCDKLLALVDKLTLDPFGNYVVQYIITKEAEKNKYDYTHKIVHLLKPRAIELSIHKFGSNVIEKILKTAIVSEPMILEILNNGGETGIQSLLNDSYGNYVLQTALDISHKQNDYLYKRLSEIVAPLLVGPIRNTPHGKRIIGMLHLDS
Experiment: Mg; RNA-MaP; 20 mM Na-HEPES pH 7.4, 30 mM KOAc, 0.75 mM MgCl2, 0.1% Tween-20, 5% glycerol, 0.1 mg/mL BSA, 2 mM DTT; 25 C; 0.0125-409.6 nM protein
Conditions: tags: N-His6-TEV cleaved; C-SNAP kept, Cy3B-labelled; label: tethered on chip by stalled RNA polymerase

{"BINDER": "Ib_S4_P3E.1_K3.1_C3.1_H3.1_[T1G]_A3.1_F3.1_[A8T]_T3.1 (ssRNA) RNA: UUUGACAACUGAUCGUUCUUUCUGGUAUAUUUUCUUUCUCGAUCAGUUGUCUUU", "RESULT UNIT": "nM", "RESULT OPERATOR": ">", "Kd": 2300}
{"BINDER": "Id_ii_S2_P5E.3_K5.2_C5.2_[T-1C]_H5.2_A5.1_F5.1_T5.2_[T11C]_[A12G] (ssRNA) RNA: UUUGAUUAAUAUGAUAUCGUUCUUUCUCCUAUAUUAUUACGUUCUUUCUCGAUAUCAUAUUAAUCUUU", "RESULT UNIT": "nM", "RESULT OPERATOR": "=", "Kd": 392}
{"BINDER": "Ie_S2_P5E.1_K5.1_C5.1_H5.1_[+4TCTCT]_A5.1_F5.1_T5.1 (ssRNA) RNA: UUUGAUUAAUAUGAUAUCGUUCUUUCUUGUAUCUCUUUAUUAUUCUUUCUCGAUAUCAUAUUAAUCUUU", "RESULT UNIT": "nM", "RESULT OPERATOR": "=", "Kd": 10.5}
